EC50, pseudovirus neutralization: recorded values
- target_or_test_system: BK virus VP1 protein, genotype III (BK virus)
- protocol_text: cell-based or functional assay
quantity_kind: EC50, pseudovirus neutralization

>  <binder>
8D10 (antibody, V domains shown) VH: QVHLVESGGDLVKPGGSLRLSCVASGFTFSDYYMNWIRLPPGKGLEWISYIDSSAGAIYYADSVKGRFTVSRDDAKNSMFLHMNSLRADDTAVYYCARERRDGHKIFDYWGPGTLVTVSS VL: DIVMTQSPDSLAVSLGERATINCKSSQNILYSSNNKNYLAWYQQKAGQPPKLLIFWSSTRESGVPDRFSGSGSGTDFTLTISSLQAEDVAVYYCQQYYSSPYNFGRGTTLEIK

>  <obs_value>
0.029 nM

$$$$
>  <binder>
2A10 (antibody, V domains shown) VH: EVQLVQSGAEVKKPGESLKISCKGSGYSFTYYWIGWVRQMPGKGLEWMGIIYPGDSDTRYSPSFQGQVTISADKSISTAYLQWSSLKASDTAMYYCTTHARNWNNVAYWGQGTLVTVSS VL: DIQMTQSPSSLSASVGDRLTITCRASQNINTFLNWYQQNPGKAPKVLIYAASSLESGVPSRFSGSGSGTDFTLTISSLQPEDFATYYCQQSSSTPWTFGQGTKVEIK

>  <obs_value>
0.0024 nM

$$$$
>  <binder>
9H9 (antibody, V domains shown) VH: EVQLVESGGGLVQPGGSLRLSCAASGFTFSSYEMNWVRQAPGKGLEWVSYISSGGSSIKYADSVRGRFTFSRDNAENSVHLQMNSLRGEDTAVYYCARVGGSYYYSYAMDVWGQGTAVTVSS VL: DIQLTQSPSFLSASVGDRVTITCWASQDISSYLAWYQQKPGKAPKLLIYAASTLQSGVPSRFSGSGSGTEFTLTISSLQPEDFATYYCQQPNNYPFSFGPGTKVDVK

>  <obs_value>
1.14 nM

$$$$
